Details: in ethanol, 298.15 K
readout kind: solubility (mole fraction)
Could you keep your reply to the number by itself?

# solubility (mole fraction) lookup, item "COc1cc(-c2cc(=O)c3c(O)cc(O)cc3o2)cc(OC)c1O"
1.26e-05

---

Details: in water, 298.15 K
readout kind: solubility (mole fraction)
Could you keep your reply to the number by itself?

# solubility (mole fraction) lookup, item "COc1cc(-c2cc(=O)c3c(O)cc(O)cc3o2)cc(OC)c1O"
1.4e-09

---

Settings: in water, 288.15 K
readout kind: solubility (mole fraction)
Could you keep your reply to the number by itself?

# solubility (mole fraction) lookup, item "COc1cc(-c2cc(=O)c3c(O)cc(O)cc3o2)cc(OC)c1O"
5e-10

---

Conditions: in water, 303.15 K
readout kind: solubility (mole fraction)
Could you keep your reply to the number by itself?

# solubility (mole fraction) lookup, item "COc1cc(-c2cc(=O)c3c(O)cc(O)cc3o2)cc(OC)c1O"
2.1e-09

---

Conditions: in water, 313.18 K
readout kind: solubility (mole fraction)

# solubility (mole fraction) lookup, item "COc1cc(-c2cc(=O)c3c(O)cc(O)cc3o2)cc(OC)c1O"
5.6e-09

---

Conditions: in water, 293.16 K
readout kind: solubility (mole fraction)
Could you keep your reply to the number by itself?

# solubility (mole fraction) lookup, item "COc1cc(-c2cc(=O)c3c(O)cc(O)cc3o2)cc(OC)c1O"
1e-09

---

Details: in ethanol, 288.15 K
readout kind: solubility (mole fraction)
Could you keep your reply to the number by itself?

# solubility (mole fraction) lookup, item "COc1cc(-c2cc(=O)c3c(O)cc(O)cc3o2)cc(OC)c1O"
5.94e-06

---

Details: in ethanol, 318.15 K
readout kind: solubility (mole fraction)
Could you keep your reply to the number by itself?

# solubility (mole fraction) lookup, item "COc1cc(-c2cc(=O)c3c(O)cc(O)cc3o2)cc(OC)c1O"
3.83e-05

---

Settings: in ethanol, 293.16 K
readout kind: solubility (mole fraction)

# solubility (mole fraction) lookup, item "COc1cc(-c2cc(=O)c3c(O)cc(O)cc3o2)cc(OC)c1O"
8.85e-06
